- PROTOCOL: Cytotoxicity against mouse RAW264.7 cells assessed as cell viability at 100 uM after 24 hrs by MTT assay relative to control
- Format: cell-based
- RUN_CONDITIONS: read-out: Activity
MEASURE: viability at 24 h, 100 µM (%)
A number alone suffices; assume %.

Quick one: viability at 24 h, 100 µM of "CC(=O)O[C@@H]1CC[C@@]2(C)[C@@H](C[C@H](O)[C@]3(C)[C@@H]2C(=O)C=C2[C@@H]4[C@@H](C)[C@H](C)CC[C@]4(C)C[C@H](O)[C@]23C)[C@@]1(C)C(=O)O" ?
108

For "CC(=O)O[C@@H]1CC[C@@]2(C)[C@@H](C[C@H](O)[C@]3(C)[C@@H]2C(=O)C=C2[C@@H]4[C@@H](C)[C@H](C)[C@@H](O)C[C@]4(C)CC[C@]23C)[C@@]1(C)C(=O)O" , what is its reported viability at 24 h, 100 µM?
104

Need viability at 24 h, 100 µM of "CC(=O)O[C@@H]1CC[C@@]2(C)[C@@H](CC[C@]3(C)[C@@H]2C(=O)C=C2[C@@H]4[C@@H](C)[C@H](C)[C@@H](O)C[C@]4(C)C[C@H](O)[C@]23C)[C@@]1(C)C(=O)O" , thanks.
134

What value of measured viability at 24 h, 100 µM is listed for "CC(=O)O[C@@H]1CC[C@@]2(C)[C@@H](C[C@H](O)[C@]3(C)[C@@H]2C(=O)C=C2[C@@H]4[C@@H](C)[C@H](C)C[C@H](O)[C@]4(C)CC[C@]23C)[C@@]1(C)C(=O)O" ?
89.8

Could you share which viability at 24 h, 100 µM value was measured for "CC(=O)O[C@@H]1CC[C@@]2(C)[C@@H](C[C@H](O)[C@]3(C)[C@@H]2C(=O)C=C2[C@@H]4[C@@H](C)[C@H](C)CC[C@]4(C)[C@H](O)C[C@]23C)[C@@]1(C)C(=O)O" ?
98.1

What value of viability at 24 h, 100 µM has been reported for the following compound? "CC(=O)O[C@@H]1CC[C@@]2(C)[C@@H](C[C@H](O)[C@]3(C)[C@@H]2C(=O)C=C2[C@@H]4[C@@H](C)[C@H](C)CC[C@]4(C)CC[C@]23C)[C@@]1(C)C(=O)O"
84.2

Sample "CC(=O)O[C@@H]1CC[C@@]2(C)[C@@H](CC[C@]3(C)[C@@H]2C(=O)C=C2[C@@H]4[C@@H](C)[C@H](C)CC[C@]4(C)CC[C@]23C)[C@@]1(C)C(=O)O" — what was its viability at 24 h, 100 µM?
81.2

Please report the recorded viability at 24 h, 100 µM for "CN(C)c1ccc(O)c2c1C[C@H]1C[C@H]3[C@H](N(C)C)C(O)=C(C(N)=O)C(=O)[C@@]3(O)C(O)=C1C2=O" .
100

Consider the compound shown here: "CC(=O)O[C@@H]1CC[C@@]2(C)[C@@H](C[C@H](O)[C@]3(C)[C@@H]2C(=O)C=C2[C@@H]4[C@@H](C)[C@H](C)[C@@H](O)C[C@]4(C)C[C@H](O)[C@]23C)[C@@]1(C)C(=O)O" What is its recorded viability at 24 h, 100 µM?
103
